Measurement Notes: Multiple-ascending-dose phase 1 study: plasma and urine pharmacokinetics
Type: in vivo, humans
Particulars: human, plasma, iv, 100 mg, 100 mg IV once weekly x2, day 1, sampling interval 144 h, arithmetic mean
Numbered stars: 1 amine (or outer) side, 2 acyl side, 3 side chain; on linkers, the order of the positions; unused ones are H or OH. Bridge positions count the residues as written; N and C are the ends. Square brackets hold non-standard residues; d marks the D form. Peptide text beside a SMILES is read from it. * marks the point of attachment. Orn(4R-OH,5R-OCH2CH2NMe3+) = C[N+](C)(C)CCO[C@@H](N[*:3])[C@H](O)C[C@H](N[*:1])C(=O)[*:2]; pTerphenylCO(4''-OnC5H11) = CCCCCOc1ccc(-c2ccc(-c3ccc(C(=O)*)cc3)cc2)cc1; hTyr(3S-OH,4S-OH) = N[C@H](C(=O)O)[C@H](O)[C@@H](O)c1ccc(O)cc1; Pro(3S-OH,4S-Me) = C[C@H]1CN[C@H](C(=O)O)[C@H]1O; Hyp = O=C(O)[C@@H]1C[C@@H](O)CN1
Observable: half-life (h)
Form entry: value (h) — number only.

Record summary for CCCCCOc1ccc(-c2ccc(-c3ccc(C(=O)N[C@H]4C[C@@H](O)[C@@H](OCC[N+](C)(C)C)NC(=O)[C@@H]5[C@@H](O)[C@@H](C)CN5C(=O)[C@H]([C@@H](C)O)NC(=O)[C@H]([C@H](O)[C@@H](O)c5ccc(O)cc5)NC(=O)[C@@H]5C[C@@H](O)CN5C(=O)[C@H]([C@@H](C)O)NC4=O)cc3)cc2)cc1 [CD101] ({pTerphenylCO(4''-OnC5H11)}-[Orn(4R-OH,5R-OCH2CH2NMe3+)]T[Hyp][hTyr(3S-OH,4S-OH)]T[Pro(3S-OH,4S-Me)]; lactam 1-C) : reported half-life = 79.1

###

Measurement Notes: Single-ascending-dose phase 1 study: plasma and urine pharmacokinetics
Format: in vivo, humans
Particulars: human; single 100 mg IV infusion over 1 h, plasma, arithmetic mean
Numbered stars: 1 amine (or outer) side, 2 acyl side, 3 side chain; on linkers, the order of the positions; unused ones are H or OH. Bridge positions count the residues as written; N and C are the ends. Square brackets hold non-standard residues; d marks the D form. Peptide text beside a SMILES is read from it. * marks the point of attachment. Orn(4R-OH,5R-OCH2CH2NMe3+) = C[N+](C)(C)CCO[C@@H](N[*:3])[C@H](O)C[C@H](N[*:1])C(=O)[*:2]; pTerphenylCO(4''-OnC5H11) = CCCCCOc1ccc(-c2ccc(-c3ccc(C(=O)*)cc3)cc2)cc1; hTyr(3S-OH,4S-OH) = N[C@H](C(=O)O)[C@H](O)[C@@H](O)c1ccc(O)cc1; Pro(3S-OH,4S-Me) = C[C@H]1CN[C@H](C(=O)O)[C@H]1O; Hyp = O=C(O)[C@@H]1C[C@@H](O)CN1
Observable: clearance (mL/min)
Form entry: value (mL/min) — number only.

Record summary for CCCCCOc1ccc(-c2ccc(-c3ccc(C(=O)N[C@H]4C[C@@H](O)[C@@H](OCC[N+](C)(C)C)NC(=O)[C@@H]5[C@@H](O)[C@@H](C)CN5C(=O)[C@H]([C@@H](C)O)NC(=O)[C@H]([C@H](O)[C@@H](O)c5ccc(O)cc5)NC(=O)[C@@H]5C[C@@H](O)CN5C(=O)[C@H]([C@@H](C)O)NC4=O)cc3)cc2)cc1 [CD101] ({pTerphenylCO(4''-OnC5H11)}-[Orn(4R-OH,5R-OCH2CH2NMe3+)]T[Hyp][hTyr(3S-OH,4S-OH)]T[Pro(3S-OH,4S-Me)]; lactam 1-C) : reported clearance = 4
